- testedOn: HIF PHD2 (Homo sapiens)
- Sequence (Q9GZT9 whole entry): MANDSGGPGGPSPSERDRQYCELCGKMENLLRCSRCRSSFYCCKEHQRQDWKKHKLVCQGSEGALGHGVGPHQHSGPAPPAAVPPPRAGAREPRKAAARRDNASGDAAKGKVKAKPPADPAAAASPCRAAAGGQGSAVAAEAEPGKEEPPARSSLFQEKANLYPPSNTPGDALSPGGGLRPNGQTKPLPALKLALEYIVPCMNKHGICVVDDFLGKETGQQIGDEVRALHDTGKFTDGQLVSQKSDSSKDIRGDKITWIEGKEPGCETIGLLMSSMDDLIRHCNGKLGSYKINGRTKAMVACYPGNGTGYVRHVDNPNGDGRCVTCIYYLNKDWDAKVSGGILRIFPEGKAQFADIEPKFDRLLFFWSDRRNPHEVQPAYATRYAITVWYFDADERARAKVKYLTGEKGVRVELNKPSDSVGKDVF
- assayOverview: PHD2 inhibition assay (TR-FRET, VCB-Eu detection of hydroxylated P564-HIF1α peptide)
- Type: biochemical
- condition: 2 nM PHD2, 100 nM P564-HIF1α peptide, 0.25 μM 2-oxoglutarate, 100 μM FeCl2, 2 mM ascorbic acid
pIC50: −log10 of the molar value.
Listed below: pIC50 values for each entry.

Solved cases (4 shown):
Per the record, CC1(C)C(=O)C(C(=O)NCC(=O)O)=C(O)c2cc(C(F)(F)F)ccc21 has pIC50 of > 7.00

Per the record, O=C(O)CNC(=O)C1=C(O)c2ccccc2C2(CCNCC2)C1=O has pIC50 of 6.30 to 7.00

Per the record, CC1(C#N)C(=O)C(C(=O)NCC(=O)O)=C(O)c2cc(F)c(F)cc21 (stereo not drawn) has pIC50 of > 7.00

Per the record, O=C(O)CNC(=O)C1=C(O)c2cc(Cl)ccc2C2(CCC2)C1=O has pIC50 of > 7.00

Alright, here's another compound for you.
Per the record, O=C(O)CNC(=O)C1=C(O)c2cc(Cl)ccc2C2(CCC(=O)CC2)C1=O has pIC50 of > 7.00
